// provenance: the NIST ThermoML archive (doi:10.1021/je050343i)

- method-notes: activity coefficient (dimensionless); of the first substance listed, at infinite dilution; xn = mol fraction of the nth substance listed
- condition-details: 289.99 K; Liquid; Chromatography; x1 = 0
Decide using activity coefficient: a value greater than or equal to 3 is condition met, a smaller one is condition not met.

activity coefficient >= 3 for C/C=C/C [(E)-2-butene] + C=C(C)CCO ?
condition met

* * *

activity coefficient for assorted compounds
- method-notes: activity coefficient (dimensionless); of the first substance listed, at infinite dilution; xn = mol fraction of the nth substance listed
- condition-details: 309.99 K; Liquid; Chromatography; x1 = 0
Please respond with just the number, no unit label.

C/C=C\C [(Z)-2-butene] + C=CC(C)(C)O
2.23

Reported activity coefficient of CCCl [chloroethane] + C=CC(C)(C)O : 1.69

Form: compound = C/C=C/C [(E)-2-butene] + C=CC(C)(C)O ; activity coefficient = 2.35

Short answer for CCCl [chloroethane] + C=C(C)CCO : activity coefficient was 2.23

So, CCCC [butane] + C=CC(C)(C)O ? Its activity coefficient was 2.87

Sample C=CC [propene] + C=CC(C)(C)O ; activity coefficient observed: 2.17

The recorded activity coefficient for CC(F)F [1,1-difluoroethane] + C=CC(C)(C)O is 2.89

For reference, reported activity coefficient for C=CC=C [1,3-butadiene] + C=CC(C)(C)O stands at 2.05

Per the records, this compound ( CC(F)F [1,1-difluoroethane] + C=C(C)CCO ) has activity coefficient equal to 3.74

Just so you know, measured activity coefficient for C=C(C)C [2-methylpropene] + C=CC(C)(C)O came out at 2.31

Just so you know, measured activity coefficient for CC(C)C [2-methylpropane] + C=CC(C)(C)O came out at 3.06

activity coefficient for CCC [propane] + C=C(C)CCO is 3.86

Documented activity coefficient of COC [dimethyl ether] + C=CC(C)(C)O : 0.72

Entry under test: C=CC [propene] + C=C(C)CCO . Its activity coefficient was 2.92

Data point: CCC [propane] + C=CC(C)(C)O ; activity coefficient = 2.7

get_value(item= C=CC=C [1,3-butadiene] + C=C(C)CCO , readout=activity coefficient) returns 2.56

* * *

- method-notes: activity coefficient (dimensionless); of the first substance listed, at infinite dilution; xn = mol fraction of the nth substance listed
- condition-details: 270.04 K; Liquid; Chromatography; x1 = 0
# activity coefficient values compiled below
Kindly provide the number alone.

Examples with answers:
CCCC [butane] + C=C(C)CCO
4.61
CC(C)C [2-methylpropane] + C=C(C)CCO
4.98
CCC [propane] + C=C(C)CCO
4.19

Please examine the following record next.
Memo: C=CC=C [1,3-butadiene] + C=C(C)CCO , reported activity coefficient: 2.69

* * *

- method-notes: activity coefficient (dimensionless); of the first substance listed, at infinite dilution; xn = mol fraction of the nth substance listed
- condition-details: 249.92 K; Liquid; Chromatography; x1 = 0
# reported activity coefficient; entries follow
# print the numeric value only

# example entries with known answers
C=CCC [1-butene] + C=C(C)CCO
3.57
CCC [propane] + C=C(C)CCO
4.36
C=CC=C [1,3-butadiene] + C=C(C)CCO
2.76
C/C=C/C [(E)-2-butene] + C=C(C)CCO
3.55
C=CC [propene] + C=C(C)CCO
3.07
CCCC [butane] + C=C(C)CCO
4.89

Recorded activity coefficient (compound C=C(C)C [2-methylpropene] + C=C(C)CCO ): 3.49

Value of measured activity coefficient for the entry CC(C)C [2-methylpropane] + C=C(C)CCO : 5.27
